ASSAYED_SYSTEM: Calmodulin-1 (Homo sapiens) (UniProt P0DP23)
METHOD_DESCRIPTION: CALM1 binders on microarrays, EGTA buffer, profiling panel, biochemical, small-molecule microarray, Cy5-labelled CALM1 (AID 1111);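 also: labelled calmodulin applied in Tris saline Tween buffer holding calcium plus EGTA and DTT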
CONDITION_INFO: Cy5-CALM1 binding fluorescence, higher = more signal
I'd appreciate it if you could supply composite z-score values for the items below.
# answer = number (no unit)

q: Param item = CC(C)[C@@H](OCc1ccccc1)[C@H](C)C=NO[C@H](C)c1cn([C@@H]2COC[C@H]2O)nn1 ; retrieve measured composite z-score.
a: -0.219

q: Param item = COCCNC(=O)OCC1CCCC2(CC(OC(=O)NCc3cccc4ccccc34)CC(CCC(=O)N[C@@H](C)C(=O)OC)O2)O1 (stereo partly drawn) ; retrieve measured composite z-score.
a: 0.171

q: Param item = CO[C@H]1COC(=O)[C@H](C)COC(=O)[C@@H](OCc2ccccc2)C=C[C@@H]1C ; retrieve measured composite z-score.
a: -0.46

q: Param item = C=C(C)C(=O)OC[C@H]1CN2[C@@H](CC[C@@H](C)[C@@H]2c2ccc(Br)cc2)C(=O)O1 ; retrieve measured composite z-score.
a: -0.562

q: Param item = CCN1C(=O)[C@H]2[C@H]3[C@H](O)[C@H](O)CC(=NO[C@H](C)c4cn([C@H](CO)Cc5ccccc5)nn4)[C@@H]3CC[C@H]2C1=O ; retrieve measured composite z-score.
a: 0.782

q: Param item = CO[C@@H]1COC(=O)[C@H](CCSC)NC(=O)CC=C[C@@H](C)COC(=O)[C@@H]2CCCN2C(=O)CC=C[C@H]1C ; retrieve measured composite z-score.
a: -0.776

q: Param item = CON(C)C(=O)c1nnc2c(n1)[nH]c1ccccc12 ; retrieve measured composite z-score.
a: -0.15

q: Param item = CON=C[C@@H](OC)[C@H](C)C=CCC(=O)OC ; retrieve measured composite z-score.
a: -0.491

====

METHOD_DESCRIPTION: compound binding in COS7 lysate, probe aLAP1, primary screen, cell lysate, small-molecule microarray (AID 1124);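 also: lysate comes from COS7 cells expressing LAP1 and is applied at 0.3 µg/mL; score merges spot fluorescence near 667 nm with signal-to-noise over triplicate slides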
CONDITION_INFO: probe aLAP1, fluorescence, higher = more signal
Short version: composite z-score at least -0.08 is T, less is F.

q: Is the recorded value of composite z-score equal to or greater than -0.08 for this compound? CCN1C(=O)[C@H]2[C@H]3[C@H](O)[C@H](O)CC(=NOC[C@@H](O)[C@H]4O[C@@H]5OC(C)(C)O[C@@H]5[C@H]4O)[C@@H]3CC[C@H]2C1=O
a: F

q: Is the recorded value of composite z-score equal to or greater than -0.08 for this compound? O=C1[C@H]2CCn3c(=O)n(Cc4cc5c(cc4Cl)OCO5)c(=O)n3[C@H]2[C@H](O)[C@@H]2O[C@H]12
a: F

q: Is the recorded value of composite z-score equal to or greater than -0.08 for this compound? CC(C)[C@H](NC(=O)OC(C)(C)C)[C@@H](O)CC(=O)C(C)(C)C
a: T

q: Is the recorded value of composite z-score equal to or greater than -0.08 for this compound? COc1ccc(O[C@H]2C=C[C@@H](c3ccccc3)O[C@@H]2CON=C(C)CCN2CCCc3nc(C)c(C)cc32)cc1
a: T

q: Is the recorded value of composite z-score equal to or greater than -0.08 for this compound? CCOC(=O)[C@H](CC(C)C)NC(=O)CCC1CC(OC(=O)NCCc2ccc(F)cc2)CC2(CCCC(COC(=O)NCc3cccc(C(F)(F)F)c3)O2)O1 (stereo partly drawn)
a: T

q: Is the recorded value of composite z-score equal to or greater than -0.08 for this compound? CC(C)=NOC(C)CN1CCCCc2nc(C)c(C)cc21 (stereo not drawn)
a: T

q: Is the recorded value of composite z-score equal to or greater than -0.08 for this compound? COc1cccc([C@H]2Oc3ccc(OC)cc3C(=NO[C@@H](C)c3cc(-c4c(C)cc(C)cc4C)no3)[C@@H]2O)c1
a: T

====

ASSAYED_SYSTEM: Concanavalin-A (Canavalia ensiformis) (UniProt P02866)
Sequence (P02866 whole entry, looked up): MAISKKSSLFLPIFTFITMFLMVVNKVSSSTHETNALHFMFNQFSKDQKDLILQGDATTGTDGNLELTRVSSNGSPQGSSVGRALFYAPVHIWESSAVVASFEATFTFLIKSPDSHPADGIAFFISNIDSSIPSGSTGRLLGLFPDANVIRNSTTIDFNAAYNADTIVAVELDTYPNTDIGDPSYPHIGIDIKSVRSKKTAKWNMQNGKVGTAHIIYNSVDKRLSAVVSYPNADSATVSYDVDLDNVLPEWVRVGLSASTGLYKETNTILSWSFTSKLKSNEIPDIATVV
METHOD_DESCRIPTION: ConA small-molecule binders, primary screen, artefact control for SMM control protein annotation, biochemical, small-molecule microarray, Alexa647 label, 635 nm (AID 1127);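 also: z combines 667 nm emission intensity with signal-to-noise across three replicate slides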
CONDITION_INFO: ConA-A647 binding fluorescence, higher = more signal
Short version: composite z-score at least 0.2 is condition met, less is condition not met.

q: Is the recorded value of composite z-score equal to or greater than 0.2 for this compound? C#CCCCON=C1C[C@@H](O)[C@@H](O)[C@@H]2[C@@H]3C(=O)N(C[C@@H]4CCCO4)C(=O)[C@@H]3CC[C@H]12
a: condition met

q: Is the recorded value of composite z-score equal to or greater than 0.2 for this compound? CC(C)=CCCC(C)=CCON=C1C[C@@H](O)[C@@H](O)[C@@H]2[C@@H]3C(=O)N(C4CCCCC4)C(=O)[C@@H]3CC[C@H]12
a: condition met

q: Is the recorded value of composite z-score equal to or greater than 0.2 for this compound? COC(=O)CC=C[C@@H](C)[C@@H](C=NOC(C)CN1CCCCc2nc(C)c(C)cc21)OC (some centres not stated)
a: condition met

q: Is the recorded value of composite z-score equal to or greater than 0.2 for this compound? CCc1cc2c(nc1CC)CCN(CCC(C)=NOCC[C@@H]1C=C[C@H](OC(C)=O)[C@@H](COC(C)=O)O1)C2
a: condition met

q: Is the recorded value of composite z-score equal to or greater than 0.2 for this compound? CC(=O)OC[C@H]1O[C@H](CCON=C(C)CCN2CCCc3nc(C)c(C)cc32)C=C[C@@H]1OC(C)=O
a: condition met

q: Is the recorded value of composite z-score equal to or greater than 0.2 for this compound? C=CC[C@@H]1C=C[C@H](ON=C(C)CCN2CCCCc3nc(C)c(C)cc32)[C@@H](CO)O1
a: condition not met

q: Is the recorded value of composite z-score equal to or greater than 0.2 for this compound? O=C1[C@H]2[C@H]3[C@H](O)[C@H](O)CC(=NOC[C@@H](O)COCc4ccco4)[C@@H]3CC[C@H]2C(=O)N1Cc1ccc2c(c1)OCO2
a: condition not met

====

ASSAYED_SYSTEM: Follistatin-related protein 3 (Homo sapiens) (UniProt O95633)
Sequence (O95633 whole entry, looked up): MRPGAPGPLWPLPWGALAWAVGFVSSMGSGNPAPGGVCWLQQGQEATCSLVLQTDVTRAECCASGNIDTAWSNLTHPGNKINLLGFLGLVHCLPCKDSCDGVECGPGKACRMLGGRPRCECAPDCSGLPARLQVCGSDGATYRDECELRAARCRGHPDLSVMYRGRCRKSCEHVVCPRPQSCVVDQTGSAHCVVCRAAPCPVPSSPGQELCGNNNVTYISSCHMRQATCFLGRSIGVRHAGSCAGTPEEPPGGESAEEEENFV
METHOD_DESCRIPTION: FSTL3 binders on small-molecule microarrays, primary screen, biochemical, small-molecule microarray, 635 nm fluorescence (AID 1105);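 also: score merges emission near 667 nm and signal to noise per printed spot across three slides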
CONDITION_INFO: FSTL3 binding, higher = more signal
I'd appreciate it if you could supply composite z-score values for the items below.
# answer = number (no unit)

q: Param item = C[C@@H]1CC[C@@H](C(=O)O)N[C@H]1c1cccc(N2CCOCC2)c1 ; retrieve measured composite z-score.
a: 0.409

q: Param item = CCOC(=O)[C@H](Cc1ccccc1)NC(=O)CCC1CC(OC(=O)NCCc2ccc(F)cc2)CC2(CCCC(COC(=O)NCc3cccc(C(F)(F)F)c3)O2)O1 (some centres undefined) ; retrieve measured composite z-score.
a: 0.786

q: Param item = CCOC(=O)CCN1C(=O)[C@H]2[C@@H]3C(=CC[C@H]2C1=O)C(=O)[C@H]1O[C@H]1[C@H]3O ; retrieve measured composite z-score.
a: -1.16

q: Param item = CCCNC(=O)OC[C@H]1O[C@H](CCON=C2C[C@@H](O)[C@@H](O)[C@@H]3[C@@H]4C(=O)N(CC)C(=O)[C@@H]4CC[C@@H]23)C=C[C@@H]1Oc1ccc(OC)cc1 ; retrieve measured composite z-score.
a: 1.07
